What follows is literature data on IC50 for Mast/stem cell growth factor receptor Kit (Homo sapiens, UniProt P10721).

Known IC50 results, listed for orientation:
* Fc1ccc(OCC(F)(F)F)c(Cl)c1Cc1c[nH]c2ncccc12 | ≤ 10 µM
* Nc1ncnc2c1c(-c1ccc(Oc3ccccc3)cc1)nn2C[C@@H]1SSC[C@@H]1O | 1 to 10 µM

Batch: IC50 for all items listed.
1. Clc1ccc(Cc2c[nH]c3ncc(-c4ccsc4)cc23)cn1
2. CCN1CCC(Nc2ccc3c(c2)/C(=C(\c2ccc(F)cc2)c2nc(C)c[nH]2)C(=O)N3)CC1
3. CCCS(=O)(=O)Nc1ccc(F)c(C(=O)c2c[nH]c3ncc(-c4ccnn4C)cc23)c1F
4. Cc1c(NC(=O)Nc2ccc(Oc3ccnc(-c4cnn(C)c4)c3)cc2F)cnn1C(C)(C)C
5. COc1ccc(Nc2ccc(C(=O)c3c[nH]c4ncnc(C5CC5)c34)c(F)n2)cn1
6. COc1cc(OCc2ccc(Cl)cc2)ccc1Cc1c[nH]c2ncccc12
7. CCN1CCC(Nc2ccc3c(c2)/C(=C(\c2ccc(F)cc2)c2ncc[nH]2)C(=O)N3)CC1
8. COc1ccc(NC(=O)Nc2cccc(C(=O)c3c[nH]c4ncccc34)c2)cc1OC

≤ 10 µM
0.05 to 0.5 µM
≤ 10 µM
< 0.1 µM
< 1 µM
≤ 10 µM
< 0.05 µM
≤ 10 µM

The following molecules each have a reported value; give each one's IC50.
1. CNc1ncc2c(n1)N1CCN=C1C(c1cc(NC(=O)Nc3ccccc3F)c(Cl)cc1C)=C2
2. CNc1ncnc2[nH]cc(C(=O)c3ccc(NC4CCCCC4)nc3Cl)c12
3. CCCS(=O)(=O)Nc1ccc(F)c(C(=O)c2c[nH]c3ncc(-c4ccc(N(C)C)cc4)cc23)c1F
4. Cc1ccc(NC(=O)c2cc(C(F)(F)F)ccn2)cc1C1=Cc2cnc(Nc3cnn(C)c3)nc2N2CCN=C12
5. O=C(c1c(F)ccc(OCc2ccc(C(F)(F)F)nc2)c1F)c1c[nH]c2ncc(Cl)cc12
6. Cc1nc(-c2cnc(NC(C)C)n(C)c2=O)ccc1Cc1c[nH]c2ncc(Cl)cc12

< 0.1 µM
< 1 µM
≤ 10 µM
< 0.1 µM
≤ 10 µM
0.0137 µM

I'm hoping you can list IC50 for every molecule here, please.
1. Cc1cc(F)c(NC(=O)c2cc(C(F)(F)F)ccn2)cc1C1=Cc2cnc(NC3COC3)nc2N2CCN=C12
2. O=C(Nc1ccccc1)Nc1cc(C2=Cc3cnc(NC4COC4)nc3N3CCN=C23)c(Br)cc1F
3. O=C(c1cccc(NS(=O)(=O)c2cccc(F)c2)c1)c1c[nH]c2ncc(Cl)cc12
4. CS(=O)(=O)c1cccc(-c2cnc3[nH]cc(C(=O)c4cccc(NS(=O)(=O)c5cccnc5)c4)c3c2)c1
5. CS(=O)(=O)c1cccc(-c2cnc3[nH]cc(C(=O)c4cc(NS(=O)(=O)c5cccnc5)ccc4F)c3c2)c1

1: 0.1 to 10 µM; 2: < 0.1 µM; 3: ≤ 10 µM; 4: ≤ 10 µM; 5: ≤ 10 µM

Look at each molecule and report its IC50.
1. O=C(c1cc(NS(=O)(=O)C2CC2)ccc1F)c1c[nH]c2ncc(Cl)cc12
2. Fc1ccccc1Nc1ncc(Cc2c[nH]c3ncc(Cl)cc23)cn1

1: ≤ 10 µM; 2: < 0.1 µM

Dear reader, for each entry below, please note its IC50.
1. CS(=O)(=O)Nc1cccc(-c2cnc3[nH]cc(C(=O)c4cccc(OC(F)F)c4)c3c2)c1
2. CCCS(=O)(=O)Nc1ccc(F)c(C(=O)c2c[nH]c3ncc(-c4cccc(S(=O)(=O)NC)c4)cc23)c1F
3. O=C(c1c(F)ccc(NS(=O)(=O)c2ccc(Cl)cc2)c1F)c1c[nH]c2ncccc12
4. CS(=O)(=O)Nc1cccc(-c2cnc3[nH]cc(C(=O)c4cc(F)cc(C(F)(F)F)c4)c3c2)c1
5. CN1CCN(Cc2cc(NC(=O)c3ccc4c(c3)CN(c3cncnc3)CC4)cc(C(F)(F)F)c2)CC1
6. Cc1ccc(Nc2ccc(Cc3c[nH]c4ncc(Cl)cc34)c(F)n2)cn1

1: ≤ 10 µM; 2: ≤ 10 µM; 3: ≤ 10 µM; 4: ≤ 10 µM; 5: > 10 µM; 6: < 0.1 µM

List IC50 for every entry below, keeping the order given.
1. CC1CN(c2cncnc2)Cc2cc(C(=O)Nc3cc(CN4CCN(C)CC4)cc(C(C)(C)C)c3)ccc21 (centres unmarked)
2. COc1ncnc2[nH]cc(Cc3ccc(NCc4ccc(C(F)(F)F)nc4)nc3F)c12
3. C[C@@H]1CN(c2cncnc2)Cc2cc(C(=O)Nc3cc(CN4CCN(C)CC4)cc(C(F)(F)F)c3)ccc21

> 10 µM
≤ 10 µM
> 10 µM

---

Let's look at some IC50 data for Mast/stem cell growth factor receptor Kit (Homo sapiens) that I collected from the literature.

Sample answers from the record:
• CCCS(=O)(=O)Nc1ccc(F)c(C(=O)c2c[nH]c3ncc(C(F)(F)F)cc23)c1F = ≤ 10 µM
• COc1cccc(NC(=O)Nc2cccc(C(=O)c3c[nH]c4ncccc34)c2)c1 = ≤ 10 µM
• COc1ccc(F)c(C(=O)c2c[nH]c3ncc(-c4cccs4)cc23)c1 = ≤ 10 µM

Provide each entry's IC50 from the list below.
1. CCn1cc(Nc2ccc(Cc3c[nH]c4ncnc(OC)c34)c(F)n2)cn1
2. Cc1nc(NCCCCCC(=O)NO)cc(Nc2ncc(C(=O)Nc3c(C)cccc3Cl)s2)n1
3. C[Si](C)(C)CCS(=O)(=O)N=S(C)(=O)c1ccc2cc1NCCCCNc1nc(ncc1Br)N2 (racemic)
4. CCCS(=O)(=O)Nc1cccc(C(=O)c2c[nH]c3ncc(OC)cc23)c1F
5. FC(F)(F)c1ccc(CNc2ccc(Cc3c[nH]c4ncncc34)cn2)cn1

1. < 1 µM
2. < 0.1 µM
3. 0.164 µM
4. ≤ 10 µM
5. ≤ 10 µM

---

// read-out pIC50, gathered for Mast/stem cell growth factor receptor Kit (Homo sapiens) from published studies
pIC50: −log10 of the molar value.

Field: example entries. Status: answers known.
• Cc1cc(C(=O)c2c[nH]c3ncc(-c4cccc(NS(C)(=O)=O)c4)cc23)n(C)n1 = ≥ 5.00
• COc1ccc(Nc2ccc(C(=O)c3c[nH]c4ncnc(NCc5ccc(C(F)(F)F)nc5)c34)c(F)n2)cn1 = < 6.00
• O=C(c1ccc(Cl)cc1Cl)c1c[nH]c2ncc(Oc3ccccc3)cc12 = ≥ 5.00

For every item below, please supply its pIC50.
1. COc1cccc(Cc2c[nH]c3ncc(-c4ccccc4)cc23)c1F
2. O=C(Nc1n[nH]c2c1CCn1cc(C(=O)N3CCCC3)cc1-2)c1ccccc1Cl
3. COc1cccc(C(=O)C2C=Nc3nccc(-c4cc(F)cc(F)c4)c32)c1 (centres unmarked)
4. CC1CN(c2cncnc2)Cc2cc(C(=O)Nc3cc(CN4CCN(C)CC4)cc(C4CC4)c3)ccc21 (centres unmarked)

1. ≥ 5.00
2. 5.22
3. ≥ 5.00
4. < 5.00

Looking up `CCCS(=O)(=O)Nc1ccc(F)c(C(=O)c2c[nH]c3ncc(-c4ccc(N)nc4)cc23)c1F` , I see its pIC50 listed as ≥ 5.00

---

Compiled notes: published IC50 values involving Mast/stem cell growth factor receptor Kit (Homo sapiens).

These recorded examples may help you get a feel for the data.
• CCN1CCC(Nc2ccc3c(c2)/C(=C(\c2ccc(Cl)cc2)c2nc(C)c[nH]2)C(=O)N3)CC1 = < 0.05 µM
• O=C(Nc1cccc(C(=O)c2c[nH]c3ncccc23)c1)Nc1ccc(C(F)(F)F)cc1Cl = ≤ 10 µM

Provide reported IC50 for each item, in the same order as listed.
1. O=C(c1cccc(NS(=O)(=O)c2ccccc2)c1F)c1c[nH]c2ncc(Cl)cc12
2. COc1cc2c(Oc3ccc(NC(=O)C4(C(=O)Nc5ccc(F)cc5)CC4)cc3)ccnc2cc1OC(=O)N1CC[C@@H](O)C1

1. ≤ 10 µM
2. < 0.1 µM

---

Compiled IC50 measurements on Mast/stem cell growth factor receptor Kit (Homo sapiens, UniProt P10721) taken from the literature.

Record excerpt, results attached:
- O=C(O)CCc1cccc(-c2cnc3[nH]cc(C(=O)c4cccc(NS(=O)(=O)C5CCCCC5)c4)c3c2)c1: ≤ 10 µM
- Clc1ccc(Cc2c[nH]c3nccc(Br)c23)cn1: ≤ 10 µM
- CCCCOc1ccc(S(=O)(=O)Nc2ccc(F)c(C(=O)c3c[nH]c4ncc(Cl)cc34)c2F)cc1: ≤ 10 µM

Working through the 4 compounds below one at a time, give IC50 for each.
1. CCc1ccc(Nc2ccc(Cc3c[nH]c4ncc(C)cc34)c(F)n2)cn1
2. CCCCNC(=O)n1ccc2c(C(=O)c3c[nH]c4ncc(-c5cccnc5)cc34)cccc21
3. CCOc1ncnc2[nH]cc(Cc3ccc(Nc4cccnc4)nc3F)c12
4. CCCS(=O)(=O)Nc1ccc(F)c(C(=O)c2c[nH]c3ncc(-c4ccc(C(=O)N(C)C)cc4)cc23)c1F

1: < 0.1 µM; 2: ≤ 10 µM; 3: < 1 µM; 4: ≤ 10 µM
